Each record here notes measured abundance fitness.
B1: POU domain, class 3, transcription factor 2, residues 262 to 338; numbered along this chain, P20265 (parent)
chain: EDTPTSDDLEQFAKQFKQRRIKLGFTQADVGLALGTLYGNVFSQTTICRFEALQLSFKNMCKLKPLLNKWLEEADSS

variants of: B1; assay: abundance fitness (aPCA) (normalised: wild type 0, dead -1); higher = more abundant; growth selection in yeast, the domain comes from the species named; conditions: Homo sapiens
Could you keep your reply to the number by itself?

The reported value for EDTPTSDDLEQFAKQFKQRRIKLGFTQADVGLALGTLYGSVFSQTTICRFEALQLSFKNMCKLKPLLNKWLEEADSS [N40S] in terms of abundance fitness is 0.022
